- testedTarget: Son of sevenless homolog 1 (Homo sapiens, UniProt Q07889)
- Sequence (Q07889 whole entry): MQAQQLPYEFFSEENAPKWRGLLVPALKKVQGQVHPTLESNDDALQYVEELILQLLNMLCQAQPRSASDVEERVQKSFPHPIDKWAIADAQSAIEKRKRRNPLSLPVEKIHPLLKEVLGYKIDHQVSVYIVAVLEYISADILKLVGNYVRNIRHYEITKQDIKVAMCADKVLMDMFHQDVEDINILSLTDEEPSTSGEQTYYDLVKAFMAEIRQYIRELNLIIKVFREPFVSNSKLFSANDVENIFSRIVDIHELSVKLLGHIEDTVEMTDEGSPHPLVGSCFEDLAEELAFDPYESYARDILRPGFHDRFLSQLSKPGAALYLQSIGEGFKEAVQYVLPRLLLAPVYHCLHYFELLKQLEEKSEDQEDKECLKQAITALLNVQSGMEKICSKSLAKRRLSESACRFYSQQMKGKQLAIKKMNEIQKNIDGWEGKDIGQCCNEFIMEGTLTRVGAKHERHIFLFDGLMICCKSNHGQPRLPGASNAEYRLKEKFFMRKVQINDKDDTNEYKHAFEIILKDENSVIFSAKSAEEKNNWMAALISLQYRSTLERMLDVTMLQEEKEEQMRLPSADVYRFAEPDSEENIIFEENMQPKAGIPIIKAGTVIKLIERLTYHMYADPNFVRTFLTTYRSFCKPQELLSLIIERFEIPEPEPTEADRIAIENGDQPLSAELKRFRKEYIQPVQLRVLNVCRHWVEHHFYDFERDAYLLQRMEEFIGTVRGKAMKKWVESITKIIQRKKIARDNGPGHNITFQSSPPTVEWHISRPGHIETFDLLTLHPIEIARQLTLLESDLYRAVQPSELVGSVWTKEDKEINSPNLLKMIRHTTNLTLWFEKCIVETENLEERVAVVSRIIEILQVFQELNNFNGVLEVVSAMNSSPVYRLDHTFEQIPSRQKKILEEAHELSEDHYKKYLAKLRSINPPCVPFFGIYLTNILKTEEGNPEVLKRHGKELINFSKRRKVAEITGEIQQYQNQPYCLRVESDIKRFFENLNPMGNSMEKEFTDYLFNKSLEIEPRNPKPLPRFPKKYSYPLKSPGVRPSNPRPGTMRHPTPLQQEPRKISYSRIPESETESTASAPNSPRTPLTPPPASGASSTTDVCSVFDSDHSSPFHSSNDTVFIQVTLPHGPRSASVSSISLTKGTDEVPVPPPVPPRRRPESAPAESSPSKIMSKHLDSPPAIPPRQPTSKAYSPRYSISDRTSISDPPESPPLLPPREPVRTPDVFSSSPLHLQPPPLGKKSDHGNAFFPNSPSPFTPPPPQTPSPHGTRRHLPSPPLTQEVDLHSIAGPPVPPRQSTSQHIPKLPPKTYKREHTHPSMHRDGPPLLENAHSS
- methodDescription: SOS1-KRas (G12C) FRET Assay
pIC50: −log10 of the molar value.

{"substanceSmiles": "C[C@@H](NC(=O)c1cc(N2CCOCC2)c(F)cc1N[C@H]1[C@@H]2CN(C)C[C@@H]21)c1cccc(C(F)F)c1F", "testedTarget": "Son of sevenless homolog 1 (Homo sapiens, UniProt Q07889)", "pIC50": 7.70}
